System: HL-60(TB) leukemia
Experiment: NCI tumour cell line growth inhibition, 48 h
endpoint: TGI

smiles_text: O=C(c1ccccc1)c1ccc2c(c1)NC(=O)c1ccccc1SSc1ccccc1C(=O)N2
assay_system: HL-60(TB) leukemia
TGI: > 100 µM

Problem: Reported TGI, compound `C=C(C)CNCCN` : ____
Result: > 100 µM

Problem: Reported TGI, compound `CCOC(=O)Cc1csc(Nc2ccccc2[N+](=O)[O-])n1` : ____
Result: > 100 µM

* * *

# Lookup of reported TGI keyed by entry
System: SK-MEL-5 melanoma
Assay: NCI tumour cell line growth inhibition, 48 h

Please review the entries below; each comes with its answer.
compound: C=CC12CCN(CC1)C(C(O)c1ccnc3ccc(OC)cc13)C2 (centres undefined)
assay_system: SK-MEL-5 melanoma
endpoint: TGI
value: > 100 µM
--
compound: COc1ccc(-c2nc3ccccc3c(=S)n2OC(C)=O)cc1
assay_system: SK-MEL-5 melanoma
endpoint: TGI
value: > 25 µM
--
compound: Nc1ncnc2c1ccn2C/C=C/CO
assay_system: SK-MEL-5 melanoma
endpoint: TGI
value: > 100 µM

From here, focus on the item given below.
Problem: Reported TGI, compound `COC(=O)c1c2c(c(C)[n+]([O-])c1C)C(=O)C(NCc1ccc(Br)cc1)=CC2=O` : ____
Result: 2.11 µM

Hello, the source for this data is PubChem BioAssay (NCI), in case you need it.
